system-under-test: PI3K delta (Homo sapiens, UniProt O00329)
Construct: for the full-length p110-d subunit are generated and fused by overlapping PCR; His tag (C); Tn5 (Trichoplusia ni) or TiniPro insect cells
Sequence (O00329 with tags, fused parts or gaps limits assumed): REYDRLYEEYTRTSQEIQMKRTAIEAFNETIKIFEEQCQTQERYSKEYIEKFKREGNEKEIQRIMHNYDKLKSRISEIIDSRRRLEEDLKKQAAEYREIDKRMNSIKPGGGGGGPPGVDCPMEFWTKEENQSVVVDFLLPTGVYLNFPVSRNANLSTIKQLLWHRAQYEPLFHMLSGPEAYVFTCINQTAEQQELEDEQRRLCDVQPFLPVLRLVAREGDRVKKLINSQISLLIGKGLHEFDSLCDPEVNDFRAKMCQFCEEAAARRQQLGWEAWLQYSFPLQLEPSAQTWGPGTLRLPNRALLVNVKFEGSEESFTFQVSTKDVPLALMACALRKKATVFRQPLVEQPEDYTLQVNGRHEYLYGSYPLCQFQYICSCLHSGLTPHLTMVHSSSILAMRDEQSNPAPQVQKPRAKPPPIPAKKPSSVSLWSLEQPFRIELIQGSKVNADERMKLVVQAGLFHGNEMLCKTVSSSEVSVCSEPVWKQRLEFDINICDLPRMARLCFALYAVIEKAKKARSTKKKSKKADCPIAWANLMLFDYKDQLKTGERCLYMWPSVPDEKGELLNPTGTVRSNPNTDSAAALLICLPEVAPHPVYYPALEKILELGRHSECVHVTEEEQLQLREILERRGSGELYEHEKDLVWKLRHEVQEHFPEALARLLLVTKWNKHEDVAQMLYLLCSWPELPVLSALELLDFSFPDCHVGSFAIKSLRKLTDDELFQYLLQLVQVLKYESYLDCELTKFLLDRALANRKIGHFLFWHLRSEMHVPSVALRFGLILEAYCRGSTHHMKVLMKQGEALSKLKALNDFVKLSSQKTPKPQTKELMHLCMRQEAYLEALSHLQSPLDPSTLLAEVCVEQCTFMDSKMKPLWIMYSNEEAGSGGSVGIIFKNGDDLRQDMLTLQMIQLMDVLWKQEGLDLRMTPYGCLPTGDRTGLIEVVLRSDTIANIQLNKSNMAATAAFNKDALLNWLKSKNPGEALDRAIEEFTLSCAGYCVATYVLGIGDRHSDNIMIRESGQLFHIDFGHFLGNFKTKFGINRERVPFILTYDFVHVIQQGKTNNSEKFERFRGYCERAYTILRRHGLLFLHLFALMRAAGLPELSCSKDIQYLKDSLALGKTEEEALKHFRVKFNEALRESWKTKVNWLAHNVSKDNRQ
procedure-summary: PI3 kinase assay (Kinase-Glo luminescence), PI3K delta
experimental-parameters: Enzymatic Data; read-out: PI3K delta IC50 [umol]
Would you kindly list pIC50 for each of these molecules?
Numbers only, as −log10 of the molar value.

Entry `Nc1ncc(-c2ccc3ncc(-c4ccc(S(=O)(=O)NCCCN5CCOCC5)cc4)n3n2)cc1C(F)(F)F` — recorded pIC50 = 7.10

Entry `O=C(NCCCOc1ccc(-c2ccc3ncc(-c4cncc(C(F)(F)F)c4)n3n2)cc1)C1CC1` — recorded pIC50 = 6.24

Please look at the items below and tell me pIC50 for each one, in order.
1. Nc1ncc(-c2ccc3ncc(-c4ccc(S(N)(=O)=O)cc4)n3n2)cc1C(F)(F)F
2. COc1ccccc1-c1ccn2ncc(-c3ccc(C(N)=O)cc3)c2n1
3. COc1cc(-c2ccc3ncc(-c4cnc(N)c(C(F)(F)F)c4)n3n2)ccc1OC1CCNCC1

[7.59, 6.35, 7.39]

====

system-under-test: PI3K delta (Homo sapiens, UniProt O00329)
Construct: for the full-length p110-d subunit are generated and fused by overlapping PCR; His tag (C); Tn5 (Trichoplusia ni) or TiniPro insect cells
procedure-summary: PI3 kinase assay (Kinase-Glo luminescence), PI3K delta
experimental-parameters: Enzymatic Data; read-out: PI3K delta IC50 [umol]
Would you kindly list IC50 for each of these molecules?
Answers are plain numbers, in µM.

Here are 3 molecules together with their reported answers.
Entry `Nc1ncc(-c2ccc3ncc(-c4ccc(C(=O)NCCCN5CCOCC5)c(F)c4)n3n2)cc1C(F)(F)F` — recorded IC50 = 0.026

Entry `COc1cc(-c2cnc3ccc(-c4cnc(N)c(C(F)(F)F)c4)nn23)ccc1C(=O)N1CCN(CC(=O)N2CCOCC2)CC1` — recorded IC50 = 0.013

Entry `Nc1ncc(-c2ccc3ncc(-c4ccc(OCCCN5CCOCC5)cc4)n3n2)cc1C(F)(F)F` — recorded IC50 = 0.061

Kindly review the next molecule as well.
Entry `CCN(CC)CCn1cnc2cc(-c3cnc4ccc(-c5cnc(N)c(C(F)(F)F)c5)nn34)cnc21` — recorded IC50 = 0.014

====

Would you kindly list log10 of IC50 for each of these molecules?
system-under-test: PI3K beta (Homo sapiens)
Construct: for the full-length p110-b subunit are generated and fused by overlapping PCR; His tag (C); Tn5 (Trichoplusia ni) or TiniPro insect cells
Sequence (P42338 with tags, fused parts or gaps limits assumed): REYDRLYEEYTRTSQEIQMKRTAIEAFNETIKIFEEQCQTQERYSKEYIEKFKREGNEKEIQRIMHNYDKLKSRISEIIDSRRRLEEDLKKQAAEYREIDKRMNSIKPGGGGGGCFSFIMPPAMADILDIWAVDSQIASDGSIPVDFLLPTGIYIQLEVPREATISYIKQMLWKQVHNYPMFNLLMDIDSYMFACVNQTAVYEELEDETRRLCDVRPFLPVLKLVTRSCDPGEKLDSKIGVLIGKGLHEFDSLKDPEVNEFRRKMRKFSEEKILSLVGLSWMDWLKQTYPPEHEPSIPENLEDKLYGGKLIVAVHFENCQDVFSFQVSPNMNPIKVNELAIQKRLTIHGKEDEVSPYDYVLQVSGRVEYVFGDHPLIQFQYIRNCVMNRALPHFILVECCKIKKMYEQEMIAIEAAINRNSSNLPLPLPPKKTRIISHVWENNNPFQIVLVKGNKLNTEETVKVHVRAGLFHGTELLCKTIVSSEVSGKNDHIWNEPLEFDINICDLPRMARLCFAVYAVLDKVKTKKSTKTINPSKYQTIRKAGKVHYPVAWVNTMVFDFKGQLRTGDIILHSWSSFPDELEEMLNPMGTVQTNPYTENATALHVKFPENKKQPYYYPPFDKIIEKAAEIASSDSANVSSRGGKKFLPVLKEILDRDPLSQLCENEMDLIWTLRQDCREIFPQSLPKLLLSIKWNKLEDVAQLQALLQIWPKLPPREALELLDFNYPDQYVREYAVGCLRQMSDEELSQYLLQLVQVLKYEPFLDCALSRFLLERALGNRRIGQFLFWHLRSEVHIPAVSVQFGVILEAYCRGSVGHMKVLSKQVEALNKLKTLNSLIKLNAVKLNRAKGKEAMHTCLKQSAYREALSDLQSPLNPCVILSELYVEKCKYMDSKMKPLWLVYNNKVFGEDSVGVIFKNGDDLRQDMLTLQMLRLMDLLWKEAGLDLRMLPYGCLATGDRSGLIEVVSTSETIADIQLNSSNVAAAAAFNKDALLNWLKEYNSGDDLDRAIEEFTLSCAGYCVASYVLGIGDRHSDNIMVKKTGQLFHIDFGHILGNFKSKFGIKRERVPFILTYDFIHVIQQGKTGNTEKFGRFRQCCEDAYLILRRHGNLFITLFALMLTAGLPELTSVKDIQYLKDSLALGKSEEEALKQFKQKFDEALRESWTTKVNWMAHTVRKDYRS
procedure-summary: PI3 kinase assay (Kinase-Glo luminescence), PI3K beta
experimental-parameters: Enzymatic Data; read-out: PI3K beta IC50 [umol]
Please be aware that the numbers have been log10-transformed from IC50 in µM.

Here are 5 molecules together with their reported answers.
Entry CN(C)CCN1CCN(C(=O)c2ccc(-c3cnc4ccc(-c5cnc(N)c(C(F)(F)F)c5)nn34)cc2)CC1 [Example 132] — recorded log10 of IC50 = 0.10

Entry Nc1ncc(-c2ccc3ncc(-c4ccc(C(=O)NCCN5CCOCC5)cc4)n3n2)cc1C(F)(F)F [Example 80] — recorded log10 of IC50 = -0.68

Entry COc1cc(-c2ccc3ncc(-c4cnc(N)c(C(F)(F)F)c4)n3n2)ccc1OCCCNC(C)=O [Example 52] — recorded log10 of IC50 = -0.44

Entry Nc1ncc(-c2ccc3ncc(-c4cnc5c(c4)ncn5CCN4CCOCC4)n3n2)cc1C(F)(F)F [Example 143] — recorded log10 of IC50 = -1.14

Entry COc1cc(-c2cnc3ccc(-c4cnc(N)c(C(F)(F)F)c4)nn23)c(F)cc1C(=O)NCCN1CCS(=O)(=O)CC1 [Example 160] — recorded log10 of IC50 = -0.84

Please look at the items below and tell me log10 of IC50 for each one, in order.
1. Nc1ncc(-c2ccc3ncc(-c4cnc5[nH]ccc5c4)n3n2)cc1C(F)(F)F [Example 41]
2. CC(=O)NCCOc1ccc(-c2ccc3ncc(-c4cnc(N)c(C(F)(F)F)c4)n3n2)cc1 [Example 75]
3. Nc1ncc(-c2cnc3ccc(-c4ccc(OCC5(N)COC5)cc4)nn23)cc1C(F)(F)F [Example 147]

1. -0.67
2. -0.19
3. -0.30

Please look at the items below and tell me log10 of IC50 for each one, in order.
1. Nc1ncc(-c2ccc3ncc(-c4cnc5c(ccn5CCN5CCOCC5)c4)n3n2)cc1C(F)(F)F [Example 126]
2. Nc1ncc(-c2ccc3ncc(-c4ccc(C(=O)N5CCN(CC(=O)N6CCOCC6)CC5)cc4)n3n2)cc1C(F)(F)F [Example 144]
3. CS(=O)(=O)Nc1ccc(-c2cnc3ccc(-c4cnc(N)c(C(F)(F)F)c4)nn23)cc1 [Example 45]
4. Nc1ncc(-c2ccc3ncc(-c4ccc(C(=O)N5CCN(Cc6ccccn6)CC5)cc4)n3n2)cc1C(F)(F)F [Example 85]
5. Nc1ncc(-c2ccc3ncc(-c4ccc(C(=O)N5CCN(Cc6cccnc6)CC5)c(F)c4)n3n2)cc1C(F)(F)F [Example 112]
6. Nc1ccc(-c2cnc3ccc(-c4ccc(OCCCNC(=O)C5CC5)cc4)nn23)cn1 [Example 129]

-0.86
-0.27
-0.42
-0.47
-0.21
0.62

Please look at the items below and tell me log10 of IC50 for each one, in order.
1. Nc1ncc(-c2ccc3ncc(-c4ccc(OCCCN5CCOCC5)cc4)n3n2)cc1C(F)(F)F [Example 171]
2. NCCCOc1ccc(-c2cnc3ccc(-c4cnc(N)c(C(F)(F)F)c4)nn23)cc1OC(F)(F)F [Example 43]
3. Nc1ncc(-c2ccc3ncc(-c4ccc(S(=O)(=O)NCCCN5CCOCC5)cc4)n3n2)cc1C(F)(F)F [Example 134]
4. Nc1ncc(-c2cnc3ccc(-c4ccc(C(=O)NCCN5CCOCC5)cc4)nn23)cc1C(F)(F)F [Example 122]
5. Nc1ncc(-c2cnc3ccc(-c4ccc5c(c4)OCO5)nn23)cc1C(F)(F)F [Example 155]
6. COc1ccc(-c2ccc3ncc(-c4cnc(N)cn4)n3n2)cc1OC [Example 38]
7. c1cnn(CCOc2ccc(-c3ccc4ncc(-c5cnc6[nH]ccc6c5)n4n3)cc2)c1 [Example 93]
8. CNc1ncc(-c2cnc3ccc(-c4cnc(N)c(C(F)(F)F)c4)nn23)cn1 [Example 87]

-0.73
-0.28
-0.35
-0.01
-0.19
-0.65
0.84
-2.00

Entry Nc1ncc(-c2ccc3ncc(-c4cncc(C(F)(F)F)c4)n3n2)cc1C(F)(F)F [Example 54] — recorded log10 of IC50 = -0.56

====

Would you kindly list IC50 for each of these compounds?
system-under-test: PI3K alfa (Homo sapiens)
Construct: for the p110-a subunit (with a deletion of the first 20 amino acids); His tag (C); made in house; host or cells: baculovirus; Tn5 (Trichoplusia ni) or TiniPro insect cells
Sequence (P42336 with tags, fused parts or gaps limits assumed): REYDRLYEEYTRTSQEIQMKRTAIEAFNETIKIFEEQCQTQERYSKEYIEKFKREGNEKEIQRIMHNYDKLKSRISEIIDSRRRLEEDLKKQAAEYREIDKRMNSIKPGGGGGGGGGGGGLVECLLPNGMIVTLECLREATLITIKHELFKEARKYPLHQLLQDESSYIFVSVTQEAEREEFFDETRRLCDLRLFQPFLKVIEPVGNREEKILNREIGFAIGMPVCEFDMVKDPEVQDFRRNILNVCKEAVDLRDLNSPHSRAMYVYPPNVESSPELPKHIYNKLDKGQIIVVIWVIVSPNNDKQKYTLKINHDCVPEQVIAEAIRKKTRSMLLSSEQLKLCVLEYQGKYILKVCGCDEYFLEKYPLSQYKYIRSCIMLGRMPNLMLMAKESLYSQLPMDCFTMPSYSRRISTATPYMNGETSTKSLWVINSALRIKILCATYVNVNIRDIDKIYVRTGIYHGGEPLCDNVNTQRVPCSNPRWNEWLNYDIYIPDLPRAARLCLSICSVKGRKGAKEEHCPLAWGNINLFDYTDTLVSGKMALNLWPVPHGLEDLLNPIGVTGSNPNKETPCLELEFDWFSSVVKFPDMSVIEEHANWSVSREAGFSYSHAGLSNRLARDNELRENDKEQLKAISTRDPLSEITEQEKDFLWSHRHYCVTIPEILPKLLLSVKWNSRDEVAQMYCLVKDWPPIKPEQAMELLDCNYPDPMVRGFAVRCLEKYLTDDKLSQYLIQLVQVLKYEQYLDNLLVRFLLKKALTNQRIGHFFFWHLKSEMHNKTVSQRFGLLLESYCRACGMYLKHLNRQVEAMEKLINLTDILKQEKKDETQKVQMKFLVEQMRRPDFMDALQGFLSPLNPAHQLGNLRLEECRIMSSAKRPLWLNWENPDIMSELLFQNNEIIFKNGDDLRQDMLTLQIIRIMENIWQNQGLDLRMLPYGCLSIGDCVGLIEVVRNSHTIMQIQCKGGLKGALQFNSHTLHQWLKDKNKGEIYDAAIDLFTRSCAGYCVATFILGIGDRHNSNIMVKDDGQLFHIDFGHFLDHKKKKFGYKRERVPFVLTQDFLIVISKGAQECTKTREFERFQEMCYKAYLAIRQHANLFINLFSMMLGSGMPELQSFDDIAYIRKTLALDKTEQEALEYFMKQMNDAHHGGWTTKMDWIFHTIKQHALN
procedure-summary: PI3 kinase assay (Kinase-Glo luminescence), PI3K alfa
Assay type: biochemical
experimental-parameters: Enzymatic Data; read-out: PI3K alfa IC50 [umol]
One number for each entry, in nM.

Here are 2 compounds together with their reported answers.
Noted IC50 for `COc1cc(-c2cnc3ccc(-c4cnc(N)c(C(F)(F)F)c4)nn23)ccc1OCCCN` , tested on PI3K alfa (Homo sapiens): 110

Noted IC50 for `CC(C)(C)OC(=O)NCCCOc1ccc(-c2ccc3ncc(-c4cnc(N)c(C(F)(F)F)c4)n3n2)cn1` , tested on PI3K alfa (Homo sapiens): 119

Kindly review the next compound as well.
Noted IC50 for `NCCCOc1ccc(-c2ccc3ncc(-c4cnc(N)c(C(F)(F)F)c4)n3n2)cn1` , tested on PI3K alfa (Homo sapiens): 82

====

system-under-test: PI3K delta (Homo sapiens, UniProt O00329)
Construct: for the full-length p110-d subunit are generated and fused by overlapping PCR; His tag (C); Tn5 (Trichoplusia ni) or TiniPro insect cells
procedure-summary: PI3 kinase assay (Kinase-Glo luminescence), PI3K delta
experimental-parameters: Enzymatic Data; read-out: PI3K delta IC50 [umol]
measured-parameter: IC50 (µM)
Answers are plain numbers, in µM.

Here are 2 molecules together with their reported answers.
Entry `Nc1ncc(-c2ccc3ncc(-c4ccc(OCCn5cccn5)cc4)n3n2)cc1C(F)(F)F` — recorded IC50 = 0.148

Entry `Nc1ncc(-c2ccc3ncc(-c4ccc(C(=O)N5CCN(CCO)CC5)cc4)n3n2)cc1C(F)(F)F` — recorded IC50 = 0.151

Kindly review the next molecule as well.
Entry `CCN(CC)CCNC(=O)c1ccc(-c2cnc3ccc(-c4cnc(N)c(C(F)(F)F)c4)nn23)cc1F` — recorded IC50 = 0.142

====

system-under-test: PI3K gamma (Homo sapiens)
Sequence (P48736 144-1102 limits assumed): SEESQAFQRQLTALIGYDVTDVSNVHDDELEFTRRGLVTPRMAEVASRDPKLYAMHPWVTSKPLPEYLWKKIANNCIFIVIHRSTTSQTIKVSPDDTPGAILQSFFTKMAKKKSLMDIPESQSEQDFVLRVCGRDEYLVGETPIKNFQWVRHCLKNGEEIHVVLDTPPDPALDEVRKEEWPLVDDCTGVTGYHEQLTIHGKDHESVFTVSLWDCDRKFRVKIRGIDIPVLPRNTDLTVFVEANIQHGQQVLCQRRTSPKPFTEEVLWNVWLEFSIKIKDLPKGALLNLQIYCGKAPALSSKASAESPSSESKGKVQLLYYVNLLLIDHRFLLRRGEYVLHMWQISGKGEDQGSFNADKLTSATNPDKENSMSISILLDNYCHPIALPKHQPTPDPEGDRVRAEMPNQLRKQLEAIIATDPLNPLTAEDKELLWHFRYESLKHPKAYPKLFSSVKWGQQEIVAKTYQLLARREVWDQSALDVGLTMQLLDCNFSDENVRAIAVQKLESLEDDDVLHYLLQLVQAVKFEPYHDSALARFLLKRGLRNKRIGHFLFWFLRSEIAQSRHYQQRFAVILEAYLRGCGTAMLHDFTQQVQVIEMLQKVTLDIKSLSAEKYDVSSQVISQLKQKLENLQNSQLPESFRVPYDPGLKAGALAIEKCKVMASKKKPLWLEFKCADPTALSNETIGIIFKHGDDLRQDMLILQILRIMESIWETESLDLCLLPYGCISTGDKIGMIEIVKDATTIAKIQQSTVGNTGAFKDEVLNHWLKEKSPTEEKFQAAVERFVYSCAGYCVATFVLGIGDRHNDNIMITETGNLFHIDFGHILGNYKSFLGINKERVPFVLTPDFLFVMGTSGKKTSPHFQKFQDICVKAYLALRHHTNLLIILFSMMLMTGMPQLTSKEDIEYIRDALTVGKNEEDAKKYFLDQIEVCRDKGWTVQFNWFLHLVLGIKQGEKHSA
measured-parameter: IC50 (nM)
Answers are plain numbers, in nM.

Here are 3 molecules together with their reported answers.
Entry `Nc1ncc(-c2ccc3ncc(-c4ccc(C(=O)N5CCN(CCc6ccccn6)CC5)cc4)n3n2)cc1C(F)(F)F` — recorded IC50 = 2010

Entry `Nc1ncc(-c2ccc3ncc(-c4ccc(C(=O)NCCN5CCOCC5)cc4F)n3n2)cc1C(F)(F)F` — recorded IC50 = 946

Entry `Nc1ncc(-c2ccc3ncc(-c4ccc(C(=O)N5CCN(CCN6CCOCC6)CC5)cc4)n3n2)cc1C(F)(F)F` — recorded IC50 = 938

Kindly review the next molecule as well.
Entry `Nc1ncc(-c2ccc3ncc(-c4ccc(C(=O)NCCCN5CCOCC5)cc4F)n3n2)cc1C(F)(F)F` — recorded IC50 = 485

Data provenance is patent US20100311729A1.
